B1: Double-stranded RNA-binding protein Staufen homolog 1, residues 183 to 249; numbered along this chain, O95793 (parent)
chain: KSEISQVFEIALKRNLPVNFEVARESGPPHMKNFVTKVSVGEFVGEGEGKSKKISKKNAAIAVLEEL

- Variants of: B1
- ASSAY_INFO: abundance fitness (aPCA) (normalised: wild type 0, dead -1); higher = more abundant; growth selection in yeast, the domain comes from the species named
- RUN_PARAMETERS: Homo sapiens
The entries below are paired with their reported abundance fitness.
Note: the reply should be a number with no unit written.

In the examples that follow, each entry is paired with its recorded abundance fitness.
Look up abundance fitness: "L67K" -0.53

# abundance fitness lookup, item "P29T" -0.111

Could you tell me which abundance fitness is on file for "G41S" ? -0.945

What value of measured abundance fitness is listed for "E21H" ? -0.072

New cases:
Value lookup for abundance fitness; key = "N33M" -0.128

State the recorded abundance fitness for this entry: "F43H" 0.014
